Give measured IC50 for each item. Keep answers brief.
# System: Dual specificity protein kinase CLK1 (Homo sapiens)
Just the number please, in nM, no unit attached.

Data request, read-out IC50, for COc1ccc2sc(C(=O)NNc3cccc(F)c3)cc2c1 66.5

Another molecule to check: COc1cccc(NNC(=O)c2cc3cc(OC)ccc3s2)c1 3.7

Also, COc1ccc2sc(C(=O)N(C)N(C)c3cccc(Br)n3)cc2c1 please. 12.9

Try the molecule COc1ccc2sc(C(=O)N(C)N(C)c3cc(F)cc(F)c3)cc2c1 24.5

Can you handle COc1ccc2sc(C(=O)NNc3cccc(C#N)c3)cc2c1 next? 5.4

And what about the molecule COc1ccc2sc(C(=O)NNc3cccc(C(F)(F)F)c3)cc2c1 ? 73

----------
# System: Dual specificity protein kinase CLK1 (Homo sapiens, UniProt P49759)
# Reported Conditions: dose 100.0 nM, time 15.0 min
# Sequence (P49759 whole entry, looked up): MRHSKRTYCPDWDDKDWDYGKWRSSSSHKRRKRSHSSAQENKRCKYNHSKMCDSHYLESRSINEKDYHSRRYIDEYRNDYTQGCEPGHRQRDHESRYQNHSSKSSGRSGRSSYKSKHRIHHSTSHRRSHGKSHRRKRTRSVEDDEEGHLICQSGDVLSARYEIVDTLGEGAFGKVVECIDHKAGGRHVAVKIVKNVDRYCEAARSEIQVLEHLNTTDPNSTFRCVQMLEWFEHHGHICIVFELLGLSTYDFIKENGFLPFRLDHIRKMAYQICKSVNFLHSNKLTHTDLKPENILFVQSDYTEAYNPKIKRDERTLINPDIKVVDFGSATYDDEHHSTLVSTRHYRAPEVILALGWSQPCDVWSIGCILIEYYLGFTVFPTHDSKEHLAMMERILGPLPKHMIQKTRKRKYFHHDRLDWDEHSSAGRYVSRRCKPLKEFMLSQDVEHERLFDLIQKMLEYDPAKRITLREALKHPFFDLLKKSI
Metric Name: inhibition

Data request, read-out inhibition, for COc1ccc2sc(C(=O)NNc3ccc(C#N)cc3)cc2c1 18.4%

Next record, please: COc1ccc2sc(C(=O)NNc3cccc(C)c3)cc2c1 29.9%

Follow-up item: COc1ccc2sc(C(=O)NNc3cc(C(F)(F)F)cc(C(F)(F)F)c3)cc2c1 22.3%

Entry COc1ccc2sc(C(=O)N(C)N(C)c3cc(F)cc(F)c3)cc2c1 please 85%

COc1ccc2sc(C(=O)NNc3ncccc3Cl)cc2c1 ? 0%

Cool, now COc1ccc2sc(C(=O)NNc3ccccn3)cc2c1 28.9%

Okay, and COc1ccc2sc(C(=O)NNc3ccc(F)cc3)cc2c1 ? 5%

Okay, and COc1ccc2sc(C(=O)NNc3ccccc3)cc2c1 ? 38.1%

Cool, now COc1ccc2sc(C(=O)NNc3ccc(Cl)cc3Cl)cc2c1 30.4%

Follow-up item: COc1ccc2sc(C(=O)NNc3ccc(I)cc3)cc2c1 16.9%

And what about the molecule COc1ccc2sc(C(=O)NNc3ccc(Br)cc3)cc2c1 ? 21.3%

Can you check COc1ccc2sc(C(=O)NNc3ccc(F)c(F)c3)cc2c1 next? 17.7%

Then what about the molecule COc1ccc2sc(C(=O)N(C)N(C)c3cccc(N)c3)cc2c1 ? 51.2%

Also COc1ccc2sc(C(=O)NNc3ccccc3Cl)cc2c1 , if possible. 29.5%

Also COc1ccc2sc(C(=O)NNc3ccc(C)cc3C)cc2c1 ? 0%

Entry COc1ccc2sc(C(=O)N(C)N(C)c3cccc(C#N)c3)cc2c1 please 62.7%

Try this molecule too: COc1ccc2sc(C(=O)N(C)N(C)c3cccc([N+](=O)[O-])c3)cc2c1 47.8%

COc1ccc2sc(C(=O)NNc3nc(OC)ncc3F)cc2c1 , same question. 0%

Cool, now COc1ccc2sc(C(=O)NNc3cccc(C(F)(F)F)c3)cc2c1 63%

Please do the same for COc1ccc2sc(C(=O)NNc3ccc([N+](=O)[O-])cc3)cc2c1 as well. 7.2%

Now try COc1ccc2sc(C(=O)NNc3ccc(C(F)(F)F)cc3)cc2c1 . 0%

Follow-up item: COc1ccc2sc(C(=O)NNc3cccc(Br)c3)cc2c1 84.6%

Entry to check: COc1cccc(NNC(=O)c2cc3cc(OC)ccc3s2)c1 86.8%

Follow-up entry: COc1ccc2sc(C(=O)NNc3ccc(C)c(Cl)c3)cc2c1 25.9%

----------
# Test Description: Metabolic stability in pooled human liver S9 fraction assessed as half life at 0.3 uM incubated for 120 mins in presence of NADPH regenerating system by LC-MS/MS analysis
# Format: ADME, subcellular
Outcome: Condition met for half-life at 0.3 µM of at least 20 min; Condition not met for anything lower.

Reported half-life at 0.3 µM reaches at least 20 min for COc1ccc2sc(C(=O)NNc3cc(F)cc(F)c3)cc2c1 ? Condition met

Same for COc1ccc2sc(C(=O)N(C)Cc3cc(F)cc(F)c3)cc2c1 Condition not met

Now give it for COc1ccc2sc(C(=O)NNc3cc(Cl)cc(Cl)c3)cc2c1 too. Condition met

Please do the same for COc1ccc2sc(C(=O)NC(=O)c3cc(Cl)ccc3OC)cc2c1 as well. Condition not met

# iterate: COc1ccc2sc(C(=O)N(C)Cc3cccc(F)c3)cc2c1 Condition not met

----------
# System: Dual specificity tyrosine-phosphorylation-regulated kinase 1A (Homo sapiens, UniProt Q13627)
So I've got a bunch of compounds here, and I need their IC50 values.
Give a bare numeral; the unit nM is implied.

If you can, please state the reported IC50 value of COc1ccc2sc(C(=O)NNc3cc(F)cc(F)c3)cc2c1 . 201

Now consider COc1ccc2sc(C(=O)NNc3cc(Cl)cc(Cl)c3)cc2c1 . 191

----------
# Test Description: Selectivity index, ratio of inhibition of DYRK1A (unknown origin) to inhibition of CLK1 (unknown origin)
Field: Selectivity Index. Provide a value for each of the molecules that follow.
No unit in the answer, only the number.

Fill in the blank: the reported Selectivity Index of C[C@@H](c1ccc(F)cc1)n1nnc2cnc3ccc(-c4ccc5ocnc5c4)cc3c21 is ____. 69

Also check COc1ccc2sc(C(=O)N(C)Cc3cccc(F)c3)cc2c1 48.6

Consider next the molecule CNc1ncc2cc3cnccc3c([N+](=O)[O-])c2n1 in the same way. 34

And for Cn1cc(-c2ccc3occ(-c4cccc(-c5ccncc5)c4)c3n2)cn1 ? 26.6

Can you check COc1ccc2sc(C(=O)NC(=O)c3cc(Cl)ccc3OC)cc2c1 next? 60

----------
# System: Dual specificity protein kinase CLK4 (Homo sapiens, UniProt Q9HAZ1)
# Sequence (Q9HAZ1 whole entry): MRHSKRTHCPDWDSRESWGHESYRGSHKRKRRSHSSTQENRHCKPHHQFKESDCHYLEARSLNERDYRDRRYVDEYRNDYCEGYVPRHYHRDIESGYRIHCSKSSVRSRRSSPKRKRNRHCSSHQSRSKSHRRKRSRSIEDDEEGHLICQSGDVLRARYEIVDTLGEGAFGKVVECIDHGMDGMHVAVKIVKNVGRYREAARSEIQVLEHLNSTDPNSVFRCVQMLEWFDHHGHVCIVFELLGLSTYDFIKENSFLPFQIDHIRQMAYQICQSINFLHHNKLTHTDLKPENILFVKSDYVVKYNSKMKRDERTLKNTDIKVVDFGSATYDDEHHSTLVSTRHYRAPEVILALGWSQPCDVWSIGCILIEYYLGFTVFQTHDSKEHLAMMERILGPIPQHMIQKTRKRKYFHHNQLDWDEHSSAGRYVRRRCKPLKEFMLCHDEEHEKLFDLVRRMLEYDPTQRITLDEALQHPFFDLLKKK
# Test Description: Inhibition of CLK4 (unknown origin) in presence of ATP
Metric Name: pIC50
Quick note: pIC50 means taking -log10 of the concentration in moles per liter.

What does the data say about its pIC50? Entry: COc1ccc2sc(C(=O)NNc3cc(F)cc(F)c3)cc2c1 7.68

----------
# Test Description: Metabolic stability in human liver microsomes assessed as half life
# Type: ADME, Microsome
Metric Name: half-life (min)
Return type: number; implicit unit min.

Which half-life is listed for COc1ccc2sc(C(=O)NC(=O)c3cc(Cl)ccc3OC)cc2c1 ? 10

Next molecule up: COc1ccc2sc(C(=O)N(C)Cc3cc(F)cc(F)c3)cc2c1 10

Input COc1ccc2sc(C(=O)N(C)Cc3cccc(F)c3)cc2c1 10

----------
# System: Dual specificity protein kinase CLK1 (Homo sapiens, UniProt P49759)
# Reported Conditions: dose 100.0 nM, time 15.0 min
Metric Name: inhibition (%)
Reply with just the number (in %).

So what does the record say about inhibition for COc1ccc2sc(C(=O)NNc3ccc(F)c(Cl)c3)cc2c1 ? 27.9

Follow-up item: COc1ccc2sc(C(=O)NNc3c(Cl)cccc3Cl)cc2c1 0

Param item: COc1ccc2sc(C(=O)NNc3cccc(N)c3)cc2c1 49

----------
# System: Dual specificity protein kinase CLK1 (Homo sapiens)
# Reported Conditions: dose 100.0 nM, time 15.0 min
inhibition below 70% gives rule not met; inhibition at or above it gives rule met.

Tell me whether inhibition is at least 70% here: COc1ccc2sc(C(=O)NNc3ccccc3F)cc2c1 rule not met

Another molecule to look at: COc1ccc2sc(C(=O)N(C)N(C)c3cc(Cl)cc(Cl)c3)cc2c1 rule not met

What about this molecule? COc1ccc2sc(C(=O)NNc3cccc(C#N)c3)cc2c1 rule met

Another molecule to look at: COc1ccc2sc(C(=O)N(C)N(C)c3cccc(Br)n3)cc2c1 rule met

Now consider COc1ccc2sc(C(=O)NNc3ccc(Cl)cc3)cc2c1 . rule not met

How about this molecule: COc1ccc2sc(C(=O)NNc3ccccc3Br)cc2c1 rule not met

Same thing, different molecule: COc1ccc2sc(C(=O)NNc3ccc(F)cc3F)cc2c1 rule not met

Item: COc1ccc2sc(C(=O)NNc3ccc(C(C)C)cc3)cc2c1 rule not met

----------
Provide the reported inhibition at 48 h, 15 µM of each item.
# Test Description: Cytotoxicity against HDF cells assessed as cell growth inhibition at 15 uM incubated for 2 days by WST-1 analysis relative to control
# Type: toxicity, cell-based
# Reported Conditions: human, HDF cells (NHDF, normal human dermal fibroblasts), time 2 day, read-out: GI
Could you give me the number in %? Just the number is fine.

// returns reported inhibition at 48 h, 15 µM for input COc1ccc2sc(C(=O)N(C)Cc3cc(F)cc(F)c3)cc2c1 9.16

Next up: COc1ccc2sc(C(=O)N(C)N(C)c3cc(F)cc(F)c3)cc2c1 20.8

----------
# System: UniProt:P49759
# Reported Conditions: dose 100.0 nM, time 15.0 min
Metric Name: inhibition (%)
The reply should contain only the number, in %.

Tell me the measured inhibition of COc1ccc2sc(C(=O)NNc3cccc([N+](=O)[O-])c3)cc2c1 , please. 68.4

Then COc1ccc2sc(C(=O)NNc3cccc(F)c3)cc2c1 ? 70.5

Ok, now COc1ccc2sc(C(=O)N(C)N(C)c3cccc(Br)c3)cc2c1 68.1
